The reported measurements were obtained from patent US8895587B2.

Tested on: Diabrotica balteata
Assay: Diabrotica balteata (corn root worm) larval test on artificial diet
Assay type: in vivo
Settings: 120 h, application rate 12 ppm, read-out: Control/% Diabrotica balteata Corn rootworm
Listed below: pest or weed control at 12 ppm values for each entry.
// note: answer is a bare numeric in %

[
  {
    "Compound": "Cc1cc(C2=NOC(c3cc(Cl)cc(Cl)c3)(C(F)(F)F)C2)ccc1[S+]([O-])CC(=O)NCC(F)(F)F (stereo not shown) [Compound A50]",
    "Value Unit": "%",
    "pest or weed control at 12 ppm": 100
  }
]

pest or weed control at 12 ppm of CSc1ccc(C2=NOC(c3cc(Cl)cc(Cl)c3)(C(F)(F)F)C2)cc1C (stereo not shown) [Compound 1-020] on Diabrotica balteata?
20

pest or weed control at 12 ppm of O=C(CSc1ccc(C2=NOC(c3cc(Cl)cc(Cl)c3)(C(F)(F)F)C2)cc1)NCC(F)(F)F (stereo not shown) [Compound 1-028] on Diabrotica balteata?
100

pest or weed control at 12 ppm of Cc1cc(C2=NOC(c3cc(Cl)cc(Cl)c3)(C(F)(F)F)C2)ccc1[S+](C)[O-] (stereo not shown) on Diabrotica balteata?
0

pest or weed control at 12 ppm of Cc1cc(C2=NOC(c3cc(Cl)cc(Cl)c3)(C(F)(F)F)C2)ccc1SCC(=O)NCC(F)(F)F (stereo not shown) [Compound A49] on Diabrotica balteata?
100

pest or weed control at 12 ppm of Cc1cc(C2=NOC(c3cc(Cl)cc(Cl)c3)(C(F)(F)F)C2)ccc1S(C)(=O)=O (stereo not shown) [Compound 1-021] on Diabrotica balteata?
0

pest or weed control at 12 ppm of O=C(CS(=O)(=O)c1ccc(C2=NOC(c3cc(Cl)cc(Cl)c3)(C(F)(F)F)C2)cc1)NCC(F)(F)F (stereo not shown) [Compound 1-030] on Diabrotica balteata?
50

* * *

Listed below: pest or weed control at 12 ppm values for each entry.
Test system: Diabrotica balteata
Test: Diabrotica balteata (corn root worm) larval test on artificial diet
Format: in vivo
Settings: 120 h, application rate 12 ppm, read-out: Control/% Diabrotica balteata Corn rootworm
Note to self: number, then unit, no commentary.

[
  {
    "Compound": "Cc1cc(C2=NOC(c3cc(Cl)cc(Cl)c3)(C(F)(F)F)C2)ccc1S(=O)(=O)CC(=O)NCC(F)(F)F (stereo not drawn)",
    "pest or weed control at 12 ppm": "100%"
  },
  {
    "Compound": "Cc1cc(C2=NO[C@@](c3cc(Cl)cc(Cl)c3)(C(F)(F)F)C2)ccc1SCC(=O)NCC(F)(F)F",
    "pest or weed control at 12 ppm": "100%"
  }
]

Now examine the next entry.
Which pest or weed control at 12 ppm is listed for O=C(C[S+]([O-])c1ccc(C2=NOC(c3cc(Cl)cc(Cl)c3)(C(F)(F)F)C2)cc1)NCC(F)(F)F (stereo not drawn) ?
50%
